# Tested on: BDF1 mice, L1210 6-MP/6-TG resistant leukemia ip, survival T/C
# PROCEDURE TEXT: NCI In Vivo Anticancer Drug Screen. Data for tumor model L1210 Leukemia resistant to 6-MP and 6-Thioguanine; NSC 755, NSC 752 (intraperitoneal) in B6D2F1 (BDF1) mice
# CONDITION NOTES: endpoint: mean survival time; dose: 250.0 mg/kg/injection; schedule: Q01DX Z (ip); vehicle: carboxymethylcellulose (CMC); higher = longer survival
Inconclusive results and toxic doses are left out.
QUANTITY KIND: T/C

>>> df
                                   molecule  experimental_result
0  CS(=O)(=O)OCC(O)C(O)COS(C)(=O)=O (stereo not drawn)     122 % of control
1  O=c1[nH]c(=O)n(C2CC(O)C(CO)O2)cc1I (stereo not drawn)     100 % of control
2                Cn1cnc2c(SCc3ccccc3)ncnc21      92 % of control
3  OCC1OC(n2cnc3c(Cl)ncnc32)C(O)C1O (stereo not drawn)      95 % of control
4                         Ic1ncnc2nc[nH]c12      89 % of control
5                      O=c1cn[nH]c(=O)[nH]1     115 % of control
6  O=C1C(NC(=O)C2CCCCC2)=C(N2CC2)C(=O)C(NC(=O)C2CCCCC2)=C1N1CC1      90 % of control
7                 CCn1cnc2c(SC3CCCC3)ncnc21      98 % of control

----------
# Test system: BDF1 mice, L1210 6-MP/6-TG resistant leukemia ip, survival T/C
# PROCEDURE TEXT: NCI In Vivo Anticancer Drug Screen. Data for tumor model L1210 Leukemia resistant to 6-MP and 6-Thioguanine; NSC 755, NSC 752 (intraperitoneal) in B6D2F1 (BDF1) mice
# CONDITION NOTES: endpoint: mean survival time; dose: 6.0 mg/kg/injection; schedule: Q01DX Z (ip); vehicle: carboxymethylcellulose (CMC)
Inconclusive results and toxic doses are left out. How the source made its calls: active means survival T/C of 150% or more; inactive means T/C below 125% in these data.
Classes used: active, inactive

>>> print(df.to_string())
                                   molecule  class_name
0  Nc1ncnc2c1ncn2C(C=O)OC(C=O)CO (stereo unspecified)    inactive
1  O=C(Nc1ccc(C2=NCCCN2)cc1)c1ccc(NC(=O)c2ccc(C3=NCCCN3)cc2)cc1      active
2     N[C@@H](Cc1ccc(N(CCCl)CCCl)cc1)C(=O)O    inactive
3  O=C(Nc1ccc(C2=NCCN2)cc1)c1ccc(C(=O)Nc2ccc(C3=NCCN3)cc2)c([N+](=O)[O-])c1      active
4                NS(=O)(=O)c1ncnc2nc[nH]c12    inactive
5  CCCC(=O)OCC1OC(n2cnc3c(=S)nc(N)[nH]c32)C(OC(=O)CCC)C1OC(=O)CCC (stereo unspecified)    inactive

----------
# Tested on: BDF1 mice, L1210 6-MP/6-TG resistant leukemia ip, survival T/C
# PROCEDURE TEXT: NCI In Vivo Anticancer Drug Screen. Data for tumor model L1210 Leukemia resistant to 6-MP and 6-Thioguanine; NSC 755, NSC 752 (intraperitoneal) in B6D2F1 (BDF1) mice
# CONDITION NOTES: endpoint: mean survival time; dose: 12.5 mg/kg/injection; schedule: Q01DX015 (ip); vehicle: carboxymethylcellulose (CMC); higher = longer survival
Toxic doses and inconclusive results are not listed.
QUANTITY KIND: T/C

>>> print(df.to_string())
                                   compound  experimental_result
0  O=C(O)c1cc[c]([Hg][S]c2ncnc3nc[nH]c23)cc1      95 % of control
1  Nc1nc(=S)c2ncn(C3OC(COC(=O)c4ccc(Cl)cc4)C(OC(=O)c4ccc(Cl)cc4)C3OC(=O)c3ccc(Cl)cc3)c2[nH]1 (stereo unspecified)      87 % of control
2                   CCCn1cnc2c(=S)nc[nH]c21      97 % of control
3                CN(C)/N=N/c1nc[nH]c1C(N)=O     104 % of control
4                  CC(=O)CSc1ncnc2nc[nH]c12     103 % of control
5     CCSc1ncc(Br)c(Sc2nc(N)nc3nc[nH]c23)n1     100 % of control

Where these numbers come from: PubChem BioAssay AID308
